Where do these numbers come from? They come from the METLIN SMRT retention time set (Domingo-Almenara et al. 2019).

assay: gradient 5% acetonitrile 3 min, to 50% in 2 min, to 85% in 15 min, held 3 min, 100 µL/min; conditions: column: Zorbax Extend-C18 2.1 x 50 mm; eluents: water / acetonitrile, 0.1% formic acid
Mark label 1 only when RP-LC retention time stays strictly below 800 s. Values equal to the cut-off are label 0.

O=C(NCc1ccc(F)cc1Cl)C1=C2CCCN2c2ccccc2S1(=O)=O: label 0
COc1cccc(NC(=O)N2CCN(c3cc(C)nc(N4CCCC4)n3)CC2)c1: label 1
O=C(CCCc1nc2cccnc2n1Cc1ccccc1)N1CCN(c2ncccn2)CC1: label 1
COc1cccc(/C=C/C(=O)NC2(c3nc(C(C)C)no3)CCCCC2)c1: label 0
CCOc1ccc(NC(=O)C2(C)Oc3cccnc3N(CC)C2=O)cc1 (centres undefined): label 0
COc1cccc(S(=O)(=O)N2CCC([C@H]3[C@@H](OC)C(=O)N3C(C)C)CC2)c1: label 0
O=C(NCc1cccs1)C1CCN(c2cnc(N3CCCCCC3)nc2)CC1: label 1
COc1ccccc1Cn1c(COc2ccccc2OC)nc2ccccc21: label 1
CN1CCC(NC(=O)c2ccc3c(c2)N(S(=O)(=O)c2ccccc2)CC3)CC1: label 1
COc1ccc2c(CCNC(=O)Nc3ccc(Cl)cc3)c[nH]c2c1: label 1
COc1cccc(CNC(=O)Cn2cnc3c(sc4nc(-c5ccccc5)ccc43)c2=O)c1: label 0
CN1C(=O)c2cc(C(=O)NCCC3=CCCCC3)nn2CC1(C)C(=O)NCc1ccccc1 (centres undefined): label 0
O=C(NCC(O)Cc1ccccc1)c1cccc(Cl)c1 (centres undefined): label 1

----------
assay: gradient 5% acetonitrile 3 min, to 50% in 2 min, to 85% in 15 min, held 3 min, 100 µL/min; conditions: column: Zorbax Extend-C18 2.1 x 50 mm; eluents: water / acetonitrile, 0.1% formic acid
Readings of RP-LC retention time for the listed compounds
Property Label: RP-LC retention time (s)

Cc1nc2c(n1C)CN(C(=O)Cc1ccc(F)cc1)CC2: 582
CCC1Oc2ccc(S(=O)(=O)N3CCC(C(=O)NCc4cccc(OC)c4)CC3)cc2NC1=O (centres undefined): 953
CCOc1cccc(-c2noc(CCn3nc(-c4ccc5c(c4)OCO5)ccc3=O)n2)c1: 978
Cc1ccc(S(=O)(=O)N2CCC(c3nc(-c4cccc(-c5ccn[nH]5)c4)no3)CC2)cc1: 971

----------
Parameter RP-LC retention time: see the listing below.
experiment: gradient 5% acetonitrile 3 min, to 50% in 2 min, to 85% in 15 min, held 3 min, 100 µL/min; settings: column: Zorbax Extend-C18 2.1 x 50 mm; eluents: water / acetonitrile, 0.1% formic acid
Property Label: RP-LC retention time (s)

O=C(NC1CC1)c1ccccc1OC1CN(C2CCC2)C1: 568
Cc1cccc(NS(=O)(=O)c2ccc(-c3nnc(C4CCC4)o3)o2)c1: 924
Cc1ccccc1C(=O)Nc1cc(-c2cccs2)no1: 947
Cc1cc(C)n(CCC(=O)N2C[C@H]3C[C@H](C2)[C@H]2CCCC(=O)N2C3)n1: 600
CCOC(=O)C1CCCN(C(=O)Cc2c(C(=O)O)c(C)cn2CC)C1 (stereo unspecified): 727
CCSc1nnc(-c2nn(C)c3c2CN(C(=O)c2c(F)cccc2Cl)CC3)n1C: 768
Clc1cccc(-c2nc(-c3cccc(-c4ccn[nH]4)c3)no2)c1: 1120
CCCn1c(-c2cccc(C(=O)NCC3CCCCC3)c2)nc2cccnc21: 904
Cc1sc(NC(=O)c2ccc3c(c2)OCO3)nc1-c1ccc2c(c1)N(C)C(=O)CO2: 823
Cc1ccc(-n2c(N3CCCC(C(=O)NCc4ccc(F)cc4)C3)nc3ccsc3c2=O)cc1 (stereo unspecified): 919
Cc1cc(Cl)ccc1NC(=O)c1cn(C)c2ncccc12: 827
CCCN1C(=O)COc2ccc(-c3noc(-c4ccc(C)cc4)n3)cc21: 1300
Cc1ccc(C)c(NC(=O)C2CC(=O)N(c3n[nH]c4cccc(F)c34)C2)c1 (stereo unspecified): 758
CC1CCN(S(=O)(=O)c2ccc(-c3nnc(C(=O)NCCc4ccccc4)o3)cc2)CC1: 1100
CC(C)c1ccc(-c2noc(N3CCC(C(=O)N4CCN(C5CCCCC5)CC4)CC3)n2)cc1: 814
Cc1ccc2c(=O)c3c([nH]c2c1C)CCN(CC(=O)Nc1cccc(Cl)c1C)C3: 661
